test system: Staphylococcus epidermidis; assay: Antimicrobial activity against Staphylococcus epidermidis ATCC 12228; format: functional
So I've got a bunch of molecules here, and I need their MIC values.

So what does the record say about MIC for `Cn1c([N+](=O)[O-])cnc1/C=C1\Cc2ccccc2C1=O` ?
> 100 µg/mL

Item: `Cc1ccc2c(c1)C(=O)/C(=C/c1c([N+](=O)[O-])ncn1C)O2`
> 100 µg/mL

Item: `Cn1cnc([N+](=O)[O-])c1/C=C1\Oc2c(Cl)cccc2C1=O`
> 100 µg/mL

Item: `Cn1cnc([N+](=O)[O-])c1/C=C1\Oc2ccc([N+](=O)[O-])cc2C1=O`
> 100 µg/mL

Item: `Cc1ccc2c(c1)O/C(=C\c1c([N+](=O)[O-])ncn1C)C2=O`
> 100 µg/mL

Item: `COc1ccc2c(c1)C(=O)/C(=C/c1c([N+](=O)[O-])ncn1C)O2`
> 100 µg/mL

Item: `Cn1cnc([N+](=O)[O-])c1/C=C1\Oc2ccc(Br)cc2C1=O`
> 100 µg/mL

Item: `COc1ccc2c(c1)O/C(=C\c1c([N+](=O)[O-])ncn1C)C2=O`
> 100 µg/mL

Item: `Cn1c([N+](=O)[O-])cnc1/C=C1\Oc2cc(Cl)ccc2C1=O`
> 100 µg/mL

Item: `Cn1cnc([N+](=O)[O-])c1/C=C1\Oc2ccccc2C1=O`
> 100 µg/mL

Item: `COc1cccc2c1O/C(=C\c1c([N+](=O)[O-])ncn1C)C2=O`
> 100 µg/mL

Item: `Cn1cnc([N+](=O)[O-])c1/C=C1\Oc2cc(Cl)ccc2C1=O`
> 100 µg/mL

Item: `Cn1c([N+](=O)[O-])cnc1/C=C1\Oc2ccc(Br)cc2C1=O`
> 100 µg/mL

Item: `Cc1cccc2c1O/C(=C\c1c([N+](=O)[O-])ncn1C)C2=O`
> 100 µg/mL

Item: `Cn1cnc([N+](=O)[O-])c1/C=C1\Oc2ccc(Cl)cc2C1=O`
> 100 µg/mL

Item: `Cn1cnc([N+](=O)[O-])c1/C=C1\Oc2ccc(I)cc2C1=O`
> 100 µg/mL

Item: `Cn1c([N+](=O)[O-])cnc1/C=C1\Oc2ccc(I)cc2C1=O`
> 100 µg/mL
